Every entry's value here was drawn from patent US20190202823A1.

Molecular target: ΔF508-CFTR (Homo sapiens, UniProt P13569, DEL508-508)
Construct: host or cells: CFBE41o- cells, doxycycline-inducible expression
Sequence (P13569 with tags, fused parts or gaps DEL508-508): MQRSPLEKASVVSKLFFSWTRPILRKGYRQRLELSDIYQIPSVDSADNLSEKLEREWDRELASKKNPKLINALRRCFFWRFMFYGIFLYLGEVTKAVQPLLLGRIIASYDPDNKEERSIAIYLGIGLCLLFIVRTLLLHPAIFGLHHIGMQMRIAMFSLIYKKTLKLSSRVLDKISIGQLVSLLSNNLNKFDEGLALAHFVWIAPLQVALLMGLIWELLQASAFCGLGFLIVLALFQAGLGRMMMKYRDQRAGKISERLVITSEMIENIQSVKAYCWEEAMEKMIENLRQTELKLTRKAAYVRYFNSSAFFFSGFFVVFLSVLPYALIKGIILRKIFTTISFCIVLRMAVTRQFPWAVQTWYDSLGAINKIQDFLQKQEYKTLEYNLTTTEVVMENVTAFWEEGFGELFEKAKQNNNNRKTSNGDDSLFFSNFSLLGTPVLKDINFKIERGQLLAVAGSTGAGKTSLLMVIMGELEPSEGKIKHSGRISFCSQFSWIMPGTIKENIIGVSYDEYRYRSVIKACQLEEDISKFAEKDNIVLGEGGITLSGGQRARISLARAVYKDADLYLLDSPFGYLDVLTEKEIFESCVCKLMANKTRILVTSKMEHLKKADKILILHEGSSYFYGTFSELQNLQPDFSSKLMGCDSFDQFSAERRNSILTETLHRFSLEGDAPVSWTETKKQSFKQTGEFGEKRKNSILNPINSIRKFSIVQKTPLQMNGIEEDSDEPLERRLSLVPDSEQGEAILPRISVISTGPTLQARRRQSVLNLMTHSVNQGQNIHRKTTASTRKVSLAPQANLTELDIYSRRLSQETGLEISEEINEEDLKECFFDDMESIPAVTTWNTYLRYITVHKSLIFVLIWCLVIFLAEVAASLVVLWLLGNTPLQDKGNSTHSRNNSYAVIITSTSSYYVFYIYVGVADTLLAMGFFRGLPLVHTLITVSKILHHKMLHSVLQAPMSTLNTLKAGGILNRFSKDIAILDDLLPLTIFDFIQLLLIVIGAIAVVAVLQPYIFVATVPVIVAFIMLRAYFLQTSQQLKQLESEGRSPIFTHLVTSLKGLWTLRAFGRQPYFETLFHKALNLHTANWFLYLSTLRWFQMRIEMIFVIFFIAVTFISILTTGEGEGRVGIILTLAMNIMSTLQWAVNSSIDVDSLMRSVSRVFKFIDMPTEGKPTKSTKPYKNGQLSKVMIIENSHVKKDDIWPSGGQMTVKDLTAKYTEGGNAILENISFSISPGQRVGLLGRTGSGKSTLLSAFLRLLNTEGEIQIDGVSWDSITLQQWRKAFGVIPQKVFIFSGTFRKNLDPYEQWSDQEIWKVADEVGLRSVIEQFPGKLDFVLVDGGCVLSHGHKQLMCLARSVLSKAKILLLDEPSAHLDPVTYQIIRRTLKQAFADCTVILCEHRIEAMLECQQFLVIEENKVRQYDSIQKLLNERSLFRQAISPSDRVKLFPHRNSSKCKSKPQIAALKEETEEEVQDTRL
Experiment: CFTR cell surface levels using HRP-tagged ΔF508-CFTR expressing CFBE cells, intrinsic corrector capacity
Format: cell-based
Conditions: HRP-tagged ΔF508-CFTR expressing CFBE41o- cells; compounds alone (intrinsic corrector capacity); 20 hours at 33° C.
Text: Measuring CFTR Cell Surface Levels Using HRP-Tagged ΔF508-CFTR Expressing CFBE Cells The HRP-tagged ΔF508-CFTR cell assay measures the expression of CFTR-ΔF508 at the plasma membrane. […] When HRP-tagged ΔF508-CFTR is present at the plasma membrane, the HRP enzyme activity can be measured. The amount of CFTR-ΔF508 that can be rescued to the plasma membrane is correlated with the amount of functional enzyme that can be measured. […]
QUANTITY KIND: EC50 (nM)
All answers are understood in nM, so give the number only.

Query block: What EC50 value was documented for this compound, COCC1CCN(Cc2cc(C(=O)NS(=O)(=O)N(C)C)nc3c2c(C2CCC2)nn3-c2ccc(F)cc2)CC1 [compound 521] ?
Result block: 10000

Query block: Recorded EC50 for CC(C)Oc1nn(C2CCCCC2)c2nc(C(=O)NS(C)(=O)=O)cc(-c3ccc(C4(C#N)CCN(C)CC4)cc3)c12 [compound 639] , please?
Result block: 132

Query block: Quick one: EC50 of Cc1nn(C2CCCCC2)c2nc(C(=O)NS(=O)(=O)C3CC3)cc(-c3ccc(N4CCOCC4)cc3)c12 [compound 239] ?
Result block: 99.2

Query block: Entry under review: CC(C)c1nn(C2CCCCC2)c2nc(C(=O)NS(C)(=O)=O)cc(-c3ccc(N4CCC(F)(F)C4)nc3)c12 [compound 64] . Reported EC50?
Result block: 835
